Target: T1, SARS-CoV-2 spike S2 subunit (SARS-CoV-2, UniProt P0DTC2 686-1213)
T1 construct: domain: S2 subunit
Assay: ELISA

binder | binding result
FN 12A (antibody, V domains shown) VH: QVQLVQSGAEVKKPGSSVKVSCKASGGTFSSYAISWVRQAPGQGLEWMGRIIPILGIANYAQKFQGRVTITADKSTSTAYMELSSLRSEDTAVYYCARSGCSSTSCPSNLYYYYYGMDVWGQGTTVTVSS VL: QSVLTQPPSVSAAPGQKVTISCSGSSSNIGNNYVSWYQQLPGTAPKLLIYDNNKRPSGIPDRFSGSKSGTSATLGITGLQTGDEADYYCGTWDSSLSALVFGGGTKLTVL | no binding
FI 4A (antibody, V domains shown) VH: EVQLVESGGGLVKPGGSLRLSCAASGFTFSRFSMNWVRQAPGKGLEWVSSISSSGSYIYFADSVKGRFTISRDNAKNSLYLQMNSLRAEDTAIYYCATYLFGDSHTYWGQGTLVTVSS VL: QSVLTQPHSVSESPGKTVTISCTGSSGSIASNYVQWYQQRPGSAPTTVIYEDNQRPSGVPDRFSGSIDSSSNSASLTISGLKTEDEADYYCQSYDSSNLHWVFGGGTKLTVL | no binding
FJ 1C (antibody, V domains shown) VH: QVQLQESGPGLVKPSETLSLTCTVSGYSISSGYYWGWIRQPPGKGLEWIGSIYHSGSTYYNPSLKSRVTISVDTSKNQFSLKLSSVTAADTAVYYCARDKALLWFGELFTNLFDYWGQGTLVTVSS VL: QSALTQPASVSGSPGQSITISCTGTSSDVGGYNYVSWYQQHPGKAPKLMIYEVSNRPSGVSNRFSGSKSGNTASLTISGLQAEDEANYYCSSYTSSSTLVFGGGTKLTVL | no binding

All values here come from patent US20230279079A1.
